test system: human fatty acid synthase FASN (Homo sapiens (Human))
Sequence (P49327 whole entry): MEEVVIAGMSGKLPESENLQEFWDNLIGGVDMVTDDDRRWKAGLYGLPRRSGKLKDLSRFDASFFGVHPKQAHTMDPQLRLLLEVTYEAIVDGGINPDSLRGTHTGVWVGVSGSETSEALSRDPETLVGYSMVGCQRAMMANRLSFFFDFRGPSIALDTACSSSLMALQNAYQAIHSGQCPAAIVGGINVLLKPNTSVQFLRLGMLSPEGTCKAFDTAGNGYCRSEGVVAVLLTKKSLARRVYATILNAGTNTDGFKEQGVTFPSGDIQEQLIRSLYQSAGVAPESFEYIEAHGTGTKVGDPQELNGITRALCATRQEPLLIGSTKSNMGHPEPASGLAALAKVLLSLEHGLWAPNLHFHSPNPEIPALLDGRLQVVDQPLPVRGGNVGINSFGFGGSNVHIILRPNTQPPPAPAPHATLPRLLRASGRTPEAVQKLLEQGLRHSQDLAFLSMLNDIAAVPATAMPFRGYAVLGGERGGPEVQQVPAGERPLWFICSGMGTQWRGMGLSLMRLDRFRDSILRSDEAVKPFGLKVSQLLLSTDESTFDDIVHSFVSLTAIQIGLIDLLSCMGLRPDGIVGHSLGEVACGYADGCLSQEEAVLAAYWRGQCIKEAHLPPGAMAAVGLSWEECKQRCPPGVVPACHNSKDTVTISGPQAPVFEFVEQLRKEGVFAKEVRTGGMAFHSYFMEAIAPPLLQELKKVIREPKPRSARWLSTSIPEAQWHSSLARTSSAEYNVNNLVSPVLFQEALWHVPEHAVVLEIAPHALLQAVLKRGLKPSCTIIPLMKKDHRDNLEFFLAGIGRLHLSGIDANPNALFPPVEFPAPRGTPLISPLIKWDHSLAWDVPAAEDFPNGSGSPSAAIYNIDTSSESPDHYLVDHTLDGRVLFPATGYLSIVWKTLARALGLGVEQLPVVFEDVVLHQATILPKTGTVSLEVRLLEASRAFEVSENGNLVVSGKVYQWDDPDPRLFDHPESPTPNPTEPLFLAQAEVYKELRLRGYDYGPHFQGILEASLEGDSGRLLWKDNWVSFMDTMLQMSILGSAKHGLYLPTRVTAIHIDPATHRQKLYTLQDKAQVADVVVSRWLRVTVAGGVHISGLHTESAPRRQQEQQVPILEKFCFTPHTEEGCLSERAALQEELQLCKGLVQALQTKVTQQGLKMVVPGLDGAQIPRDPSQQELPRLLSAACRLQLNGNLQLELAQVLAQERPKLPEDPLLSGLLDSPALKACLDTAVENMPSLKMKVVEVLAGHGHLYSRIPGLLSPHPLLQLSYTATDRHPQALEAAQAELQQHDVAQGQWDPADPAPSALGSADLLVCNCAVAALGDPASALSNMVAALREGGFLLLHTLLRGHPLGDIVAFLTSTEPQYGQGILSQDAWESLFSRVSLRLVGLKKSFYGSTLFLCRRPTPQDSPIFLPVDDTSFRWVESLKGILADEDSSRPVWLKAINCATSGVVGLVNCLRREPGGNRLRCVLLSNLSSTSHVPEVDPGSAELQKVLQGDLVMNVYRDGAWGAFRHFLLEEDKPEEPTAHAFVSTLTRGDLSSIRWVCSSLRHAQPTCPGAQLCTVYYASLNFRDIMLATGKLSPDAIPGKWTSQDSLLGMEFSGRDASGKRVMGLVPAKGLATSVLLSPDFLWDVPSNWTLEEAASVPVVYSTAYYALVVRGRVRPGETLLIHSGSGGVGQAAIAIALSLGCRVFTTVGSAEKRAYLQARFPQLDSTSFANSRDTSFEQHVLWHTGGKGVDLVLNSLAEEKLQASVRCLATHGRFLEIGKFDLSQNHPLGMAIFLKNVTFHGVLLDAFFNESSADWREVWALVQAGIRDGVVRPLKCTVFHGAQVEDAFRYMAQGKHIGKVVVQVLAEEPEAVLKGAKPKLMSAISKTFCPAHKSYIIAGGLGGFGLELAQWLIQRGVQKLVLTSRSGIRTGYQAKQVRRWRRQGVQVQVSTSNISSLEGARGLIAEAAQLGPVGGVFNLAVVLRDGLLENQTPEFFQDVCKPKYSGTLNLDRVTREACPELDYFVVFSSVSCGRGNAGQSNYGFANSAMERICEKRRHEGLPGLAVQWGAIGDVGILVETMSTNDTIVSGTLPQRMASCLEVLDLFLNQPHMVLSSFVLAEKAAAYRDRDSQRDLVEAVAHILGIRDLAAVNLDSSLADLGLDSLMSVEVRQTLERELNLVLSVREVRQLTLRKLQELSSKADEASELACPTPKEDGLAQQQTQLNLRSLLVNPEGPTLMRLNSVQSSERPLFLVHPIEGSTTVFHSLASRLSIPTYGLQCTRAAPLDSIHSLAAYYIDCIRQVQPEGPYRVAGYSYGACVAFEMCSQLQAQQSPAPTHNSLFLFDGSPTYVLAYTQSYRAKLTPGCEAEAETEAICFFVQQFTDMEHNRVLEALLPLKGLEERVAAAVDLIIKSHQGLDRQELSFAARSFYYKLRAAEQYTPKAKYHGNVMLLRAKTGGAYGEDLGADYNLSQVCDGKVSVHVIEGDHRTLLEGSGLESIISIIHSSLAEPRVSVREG
test protocol: Biochemical activity testing of human fatty acid synthase FASN (NADPH fluorescence intensity enzyme assay)
experimental setup: human recombinant full-length fatty acid synthase
Listed molecules paired with reported IC50

Note to self: IC50 recorded for CCC(=O)N[C@H]1CC[C@@H](N(C)C(=O)c2ccc(-c3cc4cc[nH]c4cc3F)cc2)C1 [Compound A122] was < 300 nM

Note to self: IC50 recorded for CN(C(=O)c1ncc(-c2nc3ccc(Cl)cc3o2)cn1)[C@@H]1CC[C@H](NC(=O)[C@@H]2CCCO2)C1 [Compound A149] was 300 to 3000 nM

Note to self: IC50 recorded for CCC(=O)N[C@H]1CC[C@@H](N(C)C(=O)c2ccc(-c3ccc(C)cc3C)cc2)C1 [Compound A90] was < 300 nM

Note to self: IC50 recorded for CCC(=O)N[C@H]1CC[C@@H](N(C)C(=O)c2ccc(-c3ccc4[nH]ccc4c3)cn2)C1 [Compound A109] was < 300 nM

Note to self: IC50 recorded for CCC(=O)N[C@H]1CC[C@@H](N(C)C(=O)c2ccc(-c3ccc4[nH]nc(C)c4c3)cc2)C1 [Compound A100] was < 300 nM

###

test system: human fatty acid synthase FASN (Homo sapiens (Human))
test protocol: Biochemical activity testing of human fatty acid synthase FASN (NADPH fluorescence intensity enzyme assay)
experimental setup: human recombinant full-length fatty acid synthase
observed property: IC50

line notation | IC50
CCC(=O)N[C@H]1CC[C@@H](N(C)C(=O)c2ccc(-c3ccc4[nH]ccc4c3)cc2F)C1 | < 300 nM
CCC(=O)N[C@H]1CC[C@@H](N(C)C(=O)c2ccc(-c3ccc4c(c3)C(F)(F)C(=O)N4)nc2)C1 | 3000 to 50000 nM

Note to self: IC50 recorded for CN(C(=O)c1ccc(-c2nc3ccccc3o2)cc1)[C@@H]1CC[C@H](NC(=O)[C@@H]2CCCO2)C1 was < 300 nM

Note to self: IC50 recorded for CCC(=O)N[C@H]1CC[C@@H](N(C)C(=O)c2ccc(C#Cc3ccncc3)cc2)C1 was < 300 nM

Note to self: IC50 recorded for CCC(=O)N[C@H]1CC[C@@H](N(C)C(=O)c2ccc(-c3ccc(OC)cc3C)cc2)C1 was < 300 nM

Note to self: IC50 recorded for CC(=O)N[C@H](C(=O)N[C@H]1CC[C@@H](N(C)C(=O)c2ccc(-c3nc4ccccc4o3)cc2)C1)C(C)C was 300 to 3000 nM

Note to self: IC50 recorded for CCC(=O)N[C@H]1CC[C@@H](N(C)C(=O)c2ccc(-c3cc(C)c4[nH]ncc4c3)cn2)C1 was < 300 nM

Note to self: IC50 recorded for CCC(=O)N[C@H]1CC[C@@H](N(C)C(=O)c2ccc(-c3ccc(C(=O)NC)cc3)cc2)C1 was < 300 nM

Note to self: IC50 recorded for CCC(=O)N[C@H]1CC[C@@H](N(C)C(=O)c2ccc(-c3ccc(-c4ccn[nH]4)cc3)cc2)C1 was < 300 nM

Note to self: IC50 recorded for CCC(=O)N[C@H]1CC[C@@H](N(C)C(=O)c2ccc(-c3ccc4nccn4c3)nc2)C1 was < 300 nM

Note to self: IC50 recorded for CCC(=O)N[C@H]1CC[C@@H](N(C)C(=O)c2ccc(-c3ccc(OC)c(OC)c3)cc2)C1 was < 300 nM

Note to self: IC50 recorded for CCC(=O)N[C@H]1CC[C@@H](N(C)C(=O)c2ccc(C#Cc3ccc(Cl)cc3)cc2)C1 was < 300 nM

Note to self: IC50 recorded for CN(C(=O)c1ccc(-c2nc3ccccc3o2)cc1)[C@@H]1CC[C@H](NC(=O)[C@H]2CCCO2)C1 was < 300 nM

Note to self: IC50 recorded for CC(=O)N[C@@H](C(=O)N[C@H]1CC[C@@H](N(C)C(=O)c2ccc(-c3nc4ccccc4o3)cc2)C1)C(C)C was 3000 to 50000 nM

Note to self: IC50 recorded for CCC(=O)N[C@H]1CC[C@@H](N(C)C(=O)c2ccc(-c3ccc4[nH]ccc4n3)cc2)C1 was < 300 nM

Note to self: IC50 recorded for CC(C)C(=O)N[C@H]1CC[C@@H](N(C)C(=O)c2ccc(-c3nc4ccccc4o3)cc2)C1 was < 300 nM

Note to self: IC50 recorded for CCC(=O)N[C@H]1CC[C@@H](N(C)C(=O)c2ccc(-c3cc(F)c4[nH]ccc4c3)cc2)C1 was < 300 nM

Note to self: IC50 recorded for CCC(=O)N[C@H]1CC[C@@H](N(C)C(=O)c2ccc(-c3ccc(-n4cccn4)cc3)cc2)C1 was < 300 nM

Note to self: IC50 recorded for CCC(=O)N[C@H]1CC[C@@H](N(C)C(=O)c2ccc(-c3ccc(C(C)C)cc3)cc2)C1 was 300 to 3000 nM

Note to self: IC50 recorded for CC(C)CCC(=O)N[C@H]1CC[C@@H](N(C)C(=O)c2ccc(-c3nc4ccccc4o3)cc2)C1 was < 300 nM

Note to self: IC50 recorded for CCC(=O)N[C@H]1CC[C@@H](N(C)C(=O)c2ccc(-c3ccc4c(ccn4C)c3)c(F)c2)C1 was < 300 nM

Note to self: IC50 recorded for CCC(=O)N[C@H]1CC[C@@H](N(C)C(=O)c2ccc(-c3ccc4c(ccn4C)c3)cc2F)C1 was < 300 nM

Note to self: IC50 recorded for CCC(=O)N[C@H]1CC[C@@H](N(C)C(=O)c2ccc(-c3ccc4[nH]ncc4c3)cc2)C1 was < 300 nM
